Attribution: ChEMBL document CHEMBL4000148

Give cytotoxicity at 72 h, 50 µM for every item shown.
- Assay comment: Cytotoxicity against mouse RAW264.7 cells assessed as inhibition of cell viability at 50 uM after 72 hrs by MTT assay relative to control
- Format: cell-based
- Study conditions: read-out: INH
The figure you give is taken to be in %; do not add the unit.

The reported cytotoxicity at 72 h, 50 µM of the compound "O=C1Oc2ccccc2[C@@]12[C@H](c1ccc(Cl)cc1)[C@H]1CSCN1[C@]21C(=O)Nc2ccc(Br)cc21" was 34.6

Lab note: measured cytotoxicity at 72 h, 50 µM of "O=C1Oc2ccccc2[C@@]12[C@H](c1ccc(Cl)cc1)[C@H]1CSCN1[C@]21C(=O)Nc2ccccc21" was 32.3

// field: cytotoxicity at 72 h, 50 µM; key: "COc1ccc([C@@H]2[C@H]3CSCN3[C@]3(C(=O)Nc4ccccc43)[C@@]23C(=O)Oc2ccccc23)cc1" ; value = 27.5

Query "O=C1Oc2ccccc2[C@@]12[C@H](c1ccc(Br)cc1)[C@H]1CSCN1[C@]21C(=O)Nc2ccccc21" yields cytotoxicity at 72 h, 50 µM of 28.5

response.value for "CSc1ccc([C@@H]2[C@H]3CSCN3[C@]3(C(=O)Nc4ccc(Br)cc43)[C@@]23C(=O)Oc2ccccc23)cc1" (field: cytotoxicity at 72 h, 50 µM) = 28.1

Record "CN1C[C@@H](c2ccc(Cl)cc2)[C@]2(C(=O)Oc3ccccc32)[C@@]12C(=O)Nc1ccccc12" , field cytotoxicity at 72 h, 50 µM: 30.1

----------
What MIC was measured for each of the following?
- Tested on: Mycobacterium tuberculosis
- Assay comment: Antitubercular activity against Mycobacterium tuberculosis H37Rv ATCC 27294 after 28 days by agar dilution method
- Format: functional
- Study conditions: H37Rv ATCC 27294, 672 h
Respond with the bare value in µg/mL.

In plain terms, "CN1C[C@@H](c2ccc(Cl)cc2)[C@]2(C(=O)Oc3ccccc32)[C@@]12C(=O)Nc1ccccc12" has a documented MIC of 6.25

Reported MIC of "O=C1Oc2ccccc2[C@@]12[C@H](c1ccc([N+](=O)[O-])cc1)[C@H]1CSCN1[C@]21C(=O)Nc2ccc([N+](=O)[O-])cc21" : 50

// "Cc1ccc([C@@H]2[C@H]3CSCN3[C@]3(C(=O)Nc4ccccc43)[C@@]23C(=O)Oc2ccccc23)cc1" : MIC value = 12.5

Record "COc1ccc([C@@H]2CN(C)[C@]3(C(=O)Nc4ccccc43)[C@@]23C(=O)Oc2ccccc23)cc1" . Reported MIC: 12.5

For "O=C1Oc2ccccc2[C@@]12[C@H](c1ccc([N+](=O)[O-])cc1)[C@H]1CSCN1[C@]21C(=O)Nc2ccc(Br)cc21" the compound record lists MIC as 3.12

Sure, the documented MIC for "CSc1ccc([C@@H]2CN(C)[C@]3(C(=O)Nc4ccccc43)[C@@]23C(=O)Oc2ccccc23)cc1" is 3.12

Data point: "CO[C@H]1/C=C/O[C@@]2(C)Oc3c(C)c(O)c4c(O)c(c(/C=N/N5CCN(C)CC5)c(O)c4c3C2=O)NC(=O)/C(C)=C\C=C\[C@H](C)[C@H](O)[C@@H](C)[C@@H](O)[C@@H](C)[C@H](OC(C)=O)[C@@H]1C" ; MIC = 0.1

For "CN1C[C@@H](c2ccc([N+](=O)[O-])cc2)[C@]2(C(=O)Oc3ccccc32)[C@@]12C(=O)Nc1ccccc12" the compound record lists MIC as 3.12
